Each entry below carries its recorded MIC.
# System: Staphylococcus aureus
# method: Antibacterial activity against Staphylococcus aureus NCTC 13616 assessed as reduction in bacterial growth incubated for 20 hrs by microplate reader method
# Format: functional
Output spec: scalar in µg/mL, unitless text.

The examples below pair each entry with its known result.
O=C(NC[C@H]1CN(c2ccc(N3CCOCC3)c(F)c2)C(=O)O1)c1cc2ncccc2o1 ... 16
O=C(NC[C@H]1CN(c2ccc(N3CCOCC3)c(F)c2)C(=O)O1)C1CC1 ... 8

Proceeding to the next molecule to report its MIC.
Short answer for Cc1ccc(CC(=O)NC[C@H]2CN(c3ccc(N4CCOCC4)c(F)c3)C(=O)O2)cc1 : MIC was 64

---

# Test system: Staphylococcus aureus
# method: Antibacterial activity against Staphylococcus aureus NCTC 13616 assessed as reduction in bacterial growth incubated for 20 hrs by microplate reader method
# Assay type: functional
Each entry below carries its recorded MIC.
Output spec: scalar in µg/mL, unitless text.

Short answer for O=C(NC[C@H]1CN(c2ccc(N3CCOCC3)c(F)c2)C(=O)O1)c1cnccn1 : MIC was 64

---

# Test system: Staphylococcus aureus
# method: Antibacterial activity against Staphylococcus aureus 1199B assessed as reduction in bacterial growth incubated for 20 hrs by microplate reader method
# Assay type: functional
Each entry below carries its recorded MIC.

O=C(NC[C@H]1CN(c2ccc(N3CCOCC3)c(F)c2)C(=O)O1)c1cnccn1 ... 32 µg/mL
O=C(NC[C@H]1CN(c2ccc(N3CCOCC3)c(F)c2)C(=O)O1)C1CCCS1 (stereo not given in full) ... 32 µg/mL
O=C(NC[C@H]1CN(c2ccc(N3CCOCC3)c(F)c2)C(=O)O1)c1cccs1 ... 8 µg/mL

Given the compound NCCCC(=O)NC[C@H]1CN(c2ccc(N3CCOCC3)c(F)c2)C(=O)O1 and test system Staphylococcus aureus, the measured MIC is > 128 µg/mL

Given the compound O=C(NC[C@H]1CN(c2ccc(N3CCOCC3)c(F)c2)C(=O)O1)c1ccsc1 and test system Staphylococcus aureus, the measured MIC is 8 µg/mL

---

Each entry below carries its recorded MIC.
# Tested on: Staphylococcus aureus
# method: Antibacterial activity against Staphylococcus aureus 1199B assessed as reduction in bacterial growth incubated for 20 hrs by microplate reader method
# Assay type: functional

The examples below pair each entry with its known result.
O=C(NC[C@H]1CN(c2ccc(N3CCOCC3)c(F)c2)C(=O)O1)C1CC1 ... 8 µg/mL
NCCC(=O)NC[C@H]1CN(c2ccc(N3CCOCC3)c(F)c2)C(=O)O1 ... > 128 µg/mL

Short answer for O=C(NC[C@H]1CN(c2ccc(N3CCOCC3)c(F)c2)C(=O)O1)c1ccccc1 : MIC was 16 µg/mL

Short answer for CCC(=O)NC[C@H]1CN(c2ccc(N3CCOCC3)c(F)c2)C(=O)O1 : MIC was 4 µg/mL

Short answer for O=C(NC[C@H]1CN(c2ccc(N3CCOCC3)c(F)c2)C(=O)O1)C1CC=CC1 : MIC was 8 µg/mL

Short answer for Cc1ccc(CC(=O)NC[C@H]2CN(c3ccc(N4CCOCC4)c(F)c3)C(=O)O2)cc1 : MIC was 64 µg/mL

---

# Tested on: Staphylococcus aureus
# method: Antibacterial activity against Staphylococcus aureus NCTC 13616 assessed as reduction in bacterial growth incubated for 20 hrs by microplate reader method
# Format: functional
Each entry below carries its recorded MIC.
Output spec: scalar in µg/mL, unitless text.

The examples below pair each entry with its known result.
CCCC(=O)NC[C@H]1CN(c2ccc(N3CCOCC3)c(F)c2)C(=O)O1 ... 8
O=C(NC[C@H]1CN(c2ccc(N3CCOCC3)c(F)c2)C(=O)O1)C1CC=CC1 ... 16
Cc1nc(Br)sc1C(=O)NC[C@H]1CN(c2ccc(N3CCOCC3)c(F)c2)C(=O)O1 ... 16

Short answer for O=C(NC[C@H]1CN(c2ccc(N3CCOCC3)c(F)c2)C(=O)O1)c1cnc(Br)s1 : MIC was 16

Short answer for O=C(NC[C@H]1CN(c2ccc(N3CCOCC3)c(F)c2)C(=O)O1)c1ccsc1 : MIC was 16

Short answer for O=C(NC[C@H]1CN(c2ccc(N3CCOCC3)c(F)c2)C(=O)O1)c1cnco1 : MIC was 128

---

# System: Staphylococcus aureus
# method: Antibacterial activity against Staphylococcus aureus NCTC 13616 assessed as reduction in bacterial growth incubated for 20 hrs by microplate reader method
# Format: functional
recordedEndpoint: MIC

The examples below pair each entry with its known result.
CN1CCC(C(=O)NC[C@H]2CN(c3ccc(N4CCOCC4)c(F)c3)C(=O)O2)C1 (stereo not given in full) ... > 128 µg/mL
NCCC(=O)NC[C@H]1CN(c2ccc(N3CCOCC3)c(F)c2)C(=O)O1 ... > 128 µg/mL
Cn1cc([N+](=O)[O-])nc1C(=O)NC[C@H]1CN(c2ccc(N3CCOCC3)c(F)c2)C(=O)O1 ... > 128 µg/mL
NCCCC(=O)NC[C@H]1CN(c2ccc(N3CCOCC3)c(F)c2)C(=O)O1 ... > 128 µg/mL
O=C(NC[C@H]1CN(c2ccc(N3CCOCC3)c(F)c2)C(=O)O1)C1CCC1 ... 8 µg/mL
O=C(NC[C@H]1CN(c2ccc(N3CCOCC3)c(F)c2)C(=O)O1)c1cccs1 ... 16 µg/mL

Short answer for O=C(NC[C@H]1CN(c2ccc(N3CCOCC3)c(F)c2)C(=O)O1)c1ccccc1 : MIC was 32 µg/mL

Short answer for O=C(NC[C@H]1CN(c2ccc(N3CCOCC3)c(F)c2)C(=O)O1)c1cc2ccccc2[nH]1 : MIC was > 128 µg/mL

Short answer for CC(C)C(=O)NC[C@H]1CN(c2ccc(N3CCOCC3)c(F)c2)C(=O)O1 : MIC was 16 µg/mL

Short answer for O=C(NC[C@H]1CN(c2ccc(N3CCOCC3)c(F)c2)C(=O)O1)c1cncs1 : MIC was 16 µg/mL

---

Each entry below carries its recorded MIC.
# Tested on: Enterococcus faecium
# method: Antibacterial activity against Vanomycin-resistant Enterococcus faecium NCTC 12204 assessed as reduction in bacterial growth incubated for 20 hrs by microplate reader method
# Type: functional

The examples below pair each entry with its known result.
O=C(NC[C@H]1CN(c2ccc(N3CCOCC3)c(F)c2)C(=O)O1)c1cc[nH]c1 ... 16 µg/mL
NCCC(=O)NC[C@H]1CN(c2ccc(N3CCOCC3)c(F)c2)C(=O)O1 ... 16 µg/mL
NCCCC(=O)NC[C@H]1CN(c2ccc(N3CCOCC3)c(F)c2)C(=O)O1 ... 64 µg/mL
Cc1ccc(CC(=O)NC[C@H]2CN(c3ccc(N4CCOCC4)c(F)c3)C(=O)O2)cc1 ... 16 µg/mL
O=C(NC[C@H]1CN(c2ccc(N3CCOCC3)c(F)c2)C(=O)O1)C1CCC1 ... 8 µg/mL
O=C(NC[C@H]1CN(c2ccc(N3CCOCC3)c(F)c2)C(=O)O1)c1cccs1 ... 8 µg/mL
O=C(NC[C@H]1CN(c2ccc(N3CCOCC3)c(F)c2)C(=O)O1)c1cc2ccccc2[nH]1 ... > 128 µg/mL
Cc1ncsc1C(=O)NC[C@H]1CN(c2ccc(N3CCOCC3)c(F)c2)C(=O)O1 ... 16 µg/mL
O=C(NC[C@H]1CN(c2ccc(N3CCOCC3)c(F)c2)C(=O)O1)c1cnco1 ... 128 µg/mL

Short answer for O=C(NC[C@H]1CN(c2ccc(N3CCOCC3)c(F)c2)C(=O)O1)C1CC1 : MIC was 8 µg/mL

---

Each entry below carries its recorded MIC.
# Test system: Enterococcus faecium
# method: Antibacterial activity against Vanomycin-resistant Enterococcus faecium NCTC 12204 assessed as reduction in bacterial growth incubated for 20 hrs by microplate reader method
# Format: functional
Output spec: scalar in µg/mL, unitless text.

The examples below pair each entry with its known result.
O=C(NC[C@H]1CN(c2ccc(N3CCOCC3)c(F)c2)C(=O)O1)C1CCCS1 (stereo not given in full) ... 32
CCCC(=O)NC[C@H]1CN(c2ccc(N3CCOCC3)c(F)c2)C(=O)O1 ... 8
O=C(NC[C@H]1CN(c2ccc(N3CCOCC3)c(F)c2)C(=O)O1)C1CC=CC1 ... 16

Proceeding to the next compound to report its MIC.
Given the compound O=C(NC[C@H]1CN(c2ccc(N3CCOCC3)c(F)c2)C(=O)O1)c1ccccc1 and test system Enterococcus faecium, the measured MIC is 16

---

# Test system: Enterococcus faecalis
# method: Antibacterial activity against Vanomycin-sensitive Enterococcus faecalis NCTC 775 assessed as reduction in bacterial growth incubated for 20 hrs by microplate reader method
# Assay type: functional
MIC less than 20 µg/mL is yes; MIC greater than or equal to 20 µg/mL is no.

Reference set (8 entries):
O=C(NC[C@H]1CN(c2ccc(N3CCOCC3)c(F)c2)C(=O)O1)[C@@H]1CCNC1 ... no
O=C(NC[C@H]1CN(c2ccc(N3CCOCC3)c(F)c2)C(=O)O1)c1cccs1 ... yes
CC(C)C(=O)NC[C@H]1CN(c2ccc(N3CCOCC3)c(F)c2)C(=O)O1 ... yes
O=C(Cc1cccc2ccccc12)NC[C@H]1CN(c2ccc(N3CCOCC3)c(F)c2)C(=O)O1 ... no
O=C(NC[C@H]1CN(c2ccc(N3CCOCC3)c(F)c2)C(=O)O1)c1ccccc1 ... no
CCCC(=O)NC[C@H]1CN(c2ccc(N3CCOCC3)c(F)c2)C(=O)O1 ... yes
O=C(NC[C@H]1CN(c2ccc(N3CCOCC3)c(F)c2)C(=O)O1)C1CCCS1 (some centres undefined) ... no
CN1CCC(C(=O)NC[C@H]2CN(c3ccc(N4CCOCC4)c(F)c3)C(=O)O2)C1 (some centres undefined) ... no

## Input In plain terms, does Cc1ccc(CC(=O)NC[C@H]2CN(c3ccc(N4CCOCC4)c(F)c3)C(=O)O2)cc1 come in under 20 µg/mL for MIC?
## Output no

## Input In plain terms, does O=C(NC[C@H]1CN(c2ccc(N3CCOCC3)c(F)c2)C(=O)O1)c1ccsc1 come in under 20 µg/mL for MIC?
## Output yes

## Input In plain terms, does Cc1nc(Br)sc1C(=O)NC[C@H]1CN(c2ccc(N3CCOCC3)c(F)c2)C(=O)O1 come in under 20 µg/mL for MIC?
## Output no

## Input In plain terms, does O=C(NC[C@H]1CN(c2ccc(N3CCOCC3)c(F)c2)C(=O)O1)[C@H]1CCNC1 come in under 20 µg/mL for MIC?
## Output no

## Input In plain terms, does Cn1cc([N+](=O)[O-])nc1C(=O)NC[C@H]1CN(c2ccc(N3CCOCC3)c(F)c2)C(=O)O1 come in under 20 µg/mL for MIC?
## Output no
